compounds and their reported Percent Effect
target-desc: Tyrosyl-tRNA synthetase, putative (Trypanosoma cruzi (strain CL Brener))
experiment-description: Trypanosoma cruzi tyrosyl tRNA synthetase (TcYRS) _High Tyrosine SOP; note: in the data most compounds retested in dose-response had high values
Format: functional
Parameters: scale not given: direction of the effect not stated beside the values
assay-conditions: 30 µM
API: value field is a number in %; no unit string.

Would you please look over these solved cases?
N#Cc1cccnc1NCc1cccnc1N1CCC(C(N)=O)CC1 ... 3.23
O=C(c1ccc(Cl)o1)N1CCCN(Cc2cscn2)CC1 ... 6.67
CC(C)Nc1nc(N2CCOCC2)nc2c1CN(Cc1ccoc1)CC2 ... 7.45
c1csc(-c2nc(CN3CCOC(Cn4cncn4)C3)cs2)c1 (configuration not stated) ... 4.43
COc1ccccc1CN1CC[C@]2(C[C@H](OC)CO2)C1 ... 5.29

Task: Fill in: Percent Effect of CCSCCNC(=O)C(c1cccc(F)c1)N(C)C (configuration not stated) is ___
Result: 6.88

Task: Fill in: Percent Effect of CC(NC(=O)NCCCc1n[nH]c(N)c1C#N)c1ccccc1 (configuration not stated) is ___
Result: 6.4

Task: Fill in: Percent Effect of Cc1ccccc1CNc1nc(O)cc(C2CC(=O)N(C)C2)n1 (configuration not stated) is ___
Result: 2.15

Task: Fill in: Percent Effect of CCOCCC(=O)N1CCCN(Cc2csc(CC)n2)CC1 is ___
Result: 6.25

###

target-desc: Chromo domain-containing protein 1 (Saccharomyces cerevisiae (strain ATCC 204508 / S288c) (Baker's yeast))
experiment-description: ScCHD-1 Enzyme Inhibition Assay; note: in the data most compounds retested in dose-response had high values
Format: functional
Set-up: scale not given: direction of the effect not stated beside the values
assay-conditions: 30 µM
compounds and their reported Percent Effect
API: value field is a number in %; no unit string.

Would you please look over these solved cases?
COCC1CC2(CCN(C(=O)c3occc3C)CC2)CO1 (stereo unspecified) ... -1.99
CC(C)c1nccn1C1CCCN(C(=O)c2cnc[nH]2)C1 (stereo unspecified) ... -3.38
COCc1nn(C(C)C)c2c1CCN(Cc1ccc(C)s1)C2 ... -2.29

Task: Fill in: Percent Effect of CCn1ccnc1CN1CCN(Cc2ccc(C#N)cc2)CC1 is ___
Result: -11.6

Task: Fill in: Percent Effect of Cc1ncsc1CN1CC[C@H]2C(=O)N(c3ccccc3)CCO[C@H]2C1 is ___
Result: -4.23

Task: Fill in: Percent Effect of NC(=O)c1cc(NC(=O)N2CCCCCC2)ccc1F is ___
Result: -2.07

###

compounds and their reported Percent Effect
target-desc: Chromo domain-containing protein 1 (Saccharomyces cerevisiae (strain ATCC 204508 / S288c) (Baker's yeast))
experiment-description: ScCHD-1 Enzyme Inhibition Assay; note: in the data most compounds retested in dose-response had high values
Format: functional
Set-up: scale not given: direction of the effect not stated beside the values
assay-conditions: 30 µM
API: value field is a number in %; no unit string.

Would you please look over these solved cases?
Cc1nnc(C(C)NCC2(c3ccc(Cl)cc3)CCCC2)o1 (centres undefined) ... 0.504
O=C(Cc1cccc(F)c1)NCCNCc1ccco1 ... -7.92
O=C(Cc1ccc2c(c1)OCCO2)N1CCCC(n2cccn2)C1 (centres undefined) ... -15
Cc1cc(C2CCCN(C(=O)c3cnn(C)c3)C2)ccn1 (centres undefined) ... -9.36
OC1(CN2CCCC2)CCCN(Cc2ccc(F)cc2Cl)C1 (centres undefined) ... -3.94

Task: Fill in: Percent Effect of CC(N(C)Cc1nc2c(cnn2C)c(=O)[nH]1)C(C)(C)C (centres undefined) is ___
Result: -4.7

Task: Fill in: Percent Effect of CC(CNC(=O)N1CCSCC1)Cc1cccs1 (centres undefined) is ___
Result: -3.96

Task: Fill in: Percent Effect of O=C(Nc1cnn(CCN2CCOCC2)c1)c1cc(F)ccc1F is ___
Result: 3.02

Task: Fill in: Percent Effect of CCc1nccn1C1CCCN(C(=O)c2cn3cccnc3n2)C1 (centres undefined) is ___
Result: 1.22

Task: Fill in: Percent Effect of Cc1cc(C)n(CC2CCCN2C(=O)Cc2c(C)noc2C)n1 (centres undefined) is ___
Result: -11.4

Task: Fill in: Percent Effect of COc1ccc(CN2CCCC2Cn2nc(C)nc2C)cc1F (centres undefined) is ___
Result: -16.6

###

compounds and their reported Percent Effect
target-desc: Arginase-2, mitochondrial (Homo sapiens) (UniProt P78540)
Sequence (P78540 whole entry): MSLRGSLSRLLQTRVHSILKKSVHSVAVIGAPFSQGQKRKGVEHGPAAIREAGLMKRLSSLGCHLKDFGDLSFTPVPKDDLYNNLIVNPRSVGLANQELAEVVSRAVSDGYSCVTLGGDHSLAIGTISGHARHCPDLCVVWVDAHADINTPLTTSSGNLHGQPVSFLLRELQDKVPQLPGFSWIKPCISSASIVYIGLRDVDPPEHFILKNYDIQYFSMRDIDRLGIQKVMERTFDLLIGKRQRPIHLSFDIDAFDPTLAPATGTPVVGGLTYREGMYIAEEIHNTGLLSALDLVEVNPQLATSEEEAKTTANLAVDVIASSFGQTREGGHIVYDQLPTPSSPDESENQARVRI
experiment-description: in vitro enzyme assay to detect the production of urea directly proportional to the activity of Arginase II; note: in the data most compounds retested in dose-response had high values
Format: functional
Set-up: scale not given: direction of the effect not stated beside the values
assay-conditions: 33.3 µM
API: value field is a number in %; no unit string.

Would you please look over these solved cases?
CCC(C(=O)NC)N(c1cccc(C)c1)S(C)(=O)=O (stereo unspecified) ... 41.7
COCCCN1CCc2cncnc2C1 ... 2.66
CC(C)N1CCc2c(C#N)c(NCc3ccco3)n3cnnc3c2C1 ... 3.55
CC(C)n1ccnc1C1CCCN(c2ccccn2)C1 (stereo unspecified) ... 0
CNC(=O)CS(=O)(=O)Cc1cc(Cl)c2c(c1)OCCCO2 ... -2.66

Switching to the query record.
Task: Fill in: Percent Effect of CN(Cc1ccco1)[C@@H]1CN(C(=O)c2ccnnc2)[C@@H]2CCCO[C@H]12 is ___
Result: -2.4

###

Species: Homo sapiens
experiment-description: To identify inhibition of the IFN signalling (Jak-Stat) pathway via expression of an eGFP reporter gene under the control of an IFN-stimulated response element (ISRE) containing MxA promoter.
Format: functional
Design: scale not given: direction of the effect not stated beside the values
assay-conditions: 30 µM
quantity-measured: Percent Effect (%)
API: value field is a number in %; no unit string.

Would you please look over these solved cases?
Cc1nnn2c1COCC(CNC(=O)c1ccc3[nH]ccc3c1)C2 (stereo not drawn) ... 14.9
O=C(c1ccn[nH]1)N1CCCC(n2cncn2)C1 (stereo not drawn) ... 6.04
O=C(Nc1cnn(CCN2CCOCC2)c1)c1ccccc1O ... -2.35
c1ccc(Cn2ccnc2CN2CCOC(Cn3cccn3)C2)cc1 (stereo not drawn) ... 2.94
Cc1ccc(NS(=O)(=O)CC2=NC(=O)n3cccc3C2=O)cc1 ... -2.44

Task: Fill in: Percent Effect of CN(C)C1CCN(C(=O)c2ccc(Cn3ccccc3=O)o2)CC1 is ___
Result: 5.91

Task: Fill in: Percent Effect of CN(C)S(=O)(=O)c1ccc(OCCNCCn2cccn2)cc1 is ___
Result: 11.8

Task: Fill in: Percent Effect of COc1ccc2c(c1)CN(Cc1nc3c(cnn3C)c(=O)[nH]1)CC2 is ___
Result: 8.47

Task: Fill in: Percent Effect of CC(C)(C)c1ccc(C2(C(=O)NCCS(N)(=O)=O)CC2)cc1 is ___
Result: 10.7

###

compounds and their reported Percent Effect
target-desc: Tyrosyl-tRNA synthetase, putative (Trypanosoma cruzi (strain CL Brener))
experiment-description: Trypanosoma cruzi tyrosyl tRNA synthetase (TcYRS) _High Tyrosine SOP; note: in the data most compounds retested in dose-response had high values
Type: functional
Design: scale not given: direction of the effect not stated beside the values
assay-conditions: 30 µM
API: value field is a number in %; no unit string.

Would you please look over these solved cases?
c1ccc(Cn2cc(CNCC3CCCN3c3cccnn3)cn2)cc1 (configuration not stated) ... 15.3
COCCCN(CCOC)C(=O)Nc1ccc(C)cc1C ... -2.13
Cc1ccc(CN2CCC[C@]3(C(=O)O)CN(c4ncccn4)C[C@@H]3C2)o1 ... 5.21
O=C(Nc1ccc(CCN2CCC(O)CC2)cc1)C1CCOCC1 ... 5.94
c1coc(CN2C[C@H](OCC3CCOCC3)[C@H]3COC[C@H]32)c1 ... 0

Task: Form field: Percent Effect recorded for COCC1CC2(CCN(C(=O)c3cc(C)oc3C)CC2)CN1C(C)C (configuration not stated) with Tyrosyl-tRNA synthetase, putative (Trypanosoma cruzi (strain CL Brener)) (enter value)
Result: 8.91

Task: Form field: Percent Effect recorded for Cc1nccn1CC1CCCN1S(=O)(=O)Cc1ccccc1 (configuration not stated) with Tyrosyl-tRNA synthetase, putative (Trypanosoma cruzi (strain CL Brener)) (enter value)
Result: 2.46

Task: Form field: Percent Effect recorded for OC1(CN2CCCC2)CCCN(Cc2ccc(F)cc2Cl)C1 (configuration not stated) with Tyrosyl-tRNA synthetase, putative (Trypanosoma cruzi (strain CL Brener)) (enter value)
Result: 3.83

###

target-desc: Chromo domain-containing protein 1 (Saccharomyces cerevisiae (strain ATCC 204508 / S288c) (Baker's yeast)) (UniProt P32657)
Sequence (P32657 whole entry, the tested form may be a part): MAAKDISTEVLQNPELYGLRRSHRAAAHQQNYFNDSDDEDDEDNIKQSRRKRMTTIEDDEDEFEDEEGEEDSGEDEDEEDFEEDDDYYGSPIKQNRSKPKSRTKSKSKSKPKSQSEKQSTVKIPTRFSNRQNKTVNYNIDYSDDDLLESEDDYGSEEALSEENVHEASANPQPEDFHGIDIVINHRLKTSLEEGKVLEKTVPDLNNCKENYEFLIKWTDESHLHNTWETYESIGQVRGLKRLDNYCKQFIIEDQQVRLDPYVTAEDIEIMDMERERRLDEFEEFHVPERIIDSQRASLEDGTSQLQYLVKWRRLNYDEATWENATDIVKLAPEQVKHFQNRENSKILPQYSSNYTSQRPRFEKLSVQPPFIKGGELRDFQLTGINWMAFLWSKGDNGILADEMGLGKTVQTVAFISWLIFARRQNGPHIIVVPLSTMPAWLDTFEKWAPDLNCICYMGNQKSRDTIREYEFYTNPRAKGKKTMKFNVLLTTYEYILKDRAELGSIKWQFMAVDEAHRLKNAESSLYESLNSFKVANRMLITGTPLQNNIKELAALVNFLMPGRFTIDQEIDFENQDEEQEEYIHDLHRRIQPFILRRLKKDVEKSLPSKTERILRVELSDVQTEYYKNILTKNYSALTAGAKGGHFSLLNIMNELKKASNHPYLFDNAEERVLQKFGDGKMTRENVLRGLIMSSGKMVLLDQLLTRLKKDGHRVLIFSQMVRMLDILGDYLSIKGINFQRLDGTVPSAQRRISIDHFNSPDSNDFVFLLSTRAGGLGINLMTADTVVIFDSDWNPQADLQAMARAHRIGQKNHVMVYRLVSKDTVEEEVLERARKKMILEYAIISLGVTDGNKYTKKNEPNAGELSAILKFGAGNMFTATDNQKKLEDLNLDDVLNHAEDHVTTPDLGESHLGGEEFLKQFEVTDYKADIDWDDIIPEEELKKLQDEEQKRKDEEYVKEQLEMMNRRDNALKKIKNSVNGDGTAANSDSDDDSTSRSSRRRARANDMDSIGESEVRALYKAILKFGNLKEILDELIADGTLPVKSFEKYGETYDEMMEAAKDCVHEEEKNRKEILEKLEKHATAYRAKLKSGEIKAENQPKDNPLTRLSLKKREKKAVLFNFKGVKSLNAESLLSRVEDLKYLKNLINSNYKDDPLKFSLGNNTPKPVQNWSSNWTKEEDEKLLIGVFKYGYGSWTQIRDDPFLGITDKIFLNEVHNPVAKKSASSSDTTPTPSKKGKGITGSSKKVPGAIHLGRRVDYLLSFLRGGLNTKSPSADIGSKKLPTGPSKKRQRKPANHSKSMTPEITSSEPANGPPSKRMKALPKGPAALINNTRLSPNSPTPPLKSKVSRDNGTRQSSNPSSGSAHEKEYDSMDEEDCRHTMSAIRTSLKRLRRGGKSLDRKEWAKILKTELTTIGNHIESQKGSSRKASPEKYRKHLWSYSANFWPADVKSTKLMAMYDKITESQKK
experiment-description: ScCHD-1 Enzyme Inhibition Assay; note: in the data most compounds retested in dose-response had high values
Assay type: functional
Design: scale not given: direction of the effect not stated beside the values
assay-conditions: 30 µM
compounds and their reported Percent Effect
API: value field is a number in %; no unit string.

CC1CCN(CCNC(=O)C2CCN(S(N)(=O)=O)CC2)CC1 ... -2.96
CC(C)c1nccn1C1CCCN(C(=O)c2cccc3c2OCO3)C1 (stereo unspecified) ... -2.9
COC(=O)CNC(=O)CSCc1nc(O)c2cc(C(C)C)sc2n1 ... -1.35

Task: Fill in: Percent Effect of Cc1nc(C)n(CC2CCCN(CCc3ccccn3)C2)n1 (stereo unspecified) is ___
Result: -36.4

Task: Fill in: Percent Effect of Cc1ccc(C(=O)N2CCN(CCCSCC#N)CC2)o1 is ___
Result: 0.208

Task: Fill in: Percent Effect of COc1ccc(NC(=O)NC(C)(C)c2noc(C)n2)cc1 is ___
Result: -1.95

Task: Fill in: Percent Effect of Cc1cc(NC(=O)CN2CCn3c(nnc3C3CC3)C2)n(C)n1 is ___
Result: 3.45

Task: Fill in: Percent Effect of CN1CCCC1CNC(=O)c1nnn(-c2ccc(F)cc2)c1C1CC1 (stereo unspecified) is ___
Result: -4.68

Task: Fill in: Percent Effect of CC(NC(=O)NCc1cc[nH]n1)c1ccc2c(c1)CCC(=O)N2 (stereo unspecified) is ___
Result: -9.64

Task: Fill in: Percent Effect of O=C(c1ccc(=O)[nH]n1)N1CC(c2nc(Cc3ccccc3)no2)C1 is ___
Result: -5.6

Task: Fill in: Percent Effect of Cc1cc(C[S+]([O-])CC(=O)Nc2c(C)cccc2C)no1 (stereo unspecified) is ___
Result: -3.01
